Target: native sulfated human cationic trypsin purified from pancreatic juice (human)
Assay: equilibrium binding assay (free trypsin activity on a fluorogenic substrate); fixed trypsin incubated with increasing SPINK1, 0.2 ml, 0.1 M Tris-HCl (pH 8.0), 150 mM NaCl, 1 mM CaCl2, 0.05% Tween 20, 15 h; free trypsin measured with Z-Gly-Pro-Arg-AMC; apparent KD, global fit of at least three experiments
pKd: −log10 of the molar value.
measurement.name: pKd

1. SPINK1 variant P55S, C-terminal 10His tag (natural protein) DSLGREAKCYNELNGCTKIYDPVCGTDGNTYSNECVLCFENRKRQTSILIQKSGPC; 10.00
2. SPINK1 variant N37S, C-terminal 10His tag (natural protein) DSLGREAKCYNELSGCTKIYDPVCGTDGNTYPNECVLCFENRKRQTSILIQKSGPC; 10.06
3. serine protease inhibitor Kazal type 1 (SPINK1), wildtype, C-terminal 10His tag (natural protein) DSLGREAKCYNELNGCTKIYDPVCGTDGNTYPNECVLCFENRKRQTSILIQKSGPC; 10.21
4. SPINK1 variant R65Q, C-terminal 10His tag (natural protein) DSLGREAKCYNELNGCTKIYDPVCGTDGNTYPNECVLCFENQKRQTSILIQKSGPC; 10.23
5. SPINK1 variant Q68R, C-terminal 10His tag (natural protein) DSLGREAKCYNELNGCTKIYDPVCGTDGNTYPNECVLCFENRKRRTSILIQKSGPC; 10.17

Where do the numbers come from? From paper PMC7949130.
